Would you mind telling me the reported %Inh of each entry?
system: MARK2; conditions: concentration: 1 μM, replicates: in singlicate; n = 1;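 note: KINOMEscan kinase panel screen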
One number for each entry, in %.

Past entries and their recorded results:
| COMPOUND | UNIT_ANNOTATION | %Inh |
| --- | --- | --- |
| Cc1ccc(F)c(C(=O)Nc2cccc(-c3nn4ccccc4c3-c3ccnc(Nc4cccc(F)c4)n3)c2)c1F | % | 14 |
| O=C(Nc1n[nH]c2nc(-c3ccc(O)cc3)ccc12)C1CC1 | % | 38 |

I'm hoping you can list %Inh for every compound here, please.
1. O=C(Nc1cccc(-c2nn3ncccc3c2-c2ccnc(Nc3ccccc3)n2)c1)c1c(F)cccc1F
2. CC(=O)N1CCN(c2ccc(Nc3nccc(-c4sc(C(C)C)nc4-c4cccc(NS(=O)(=O)c5cccc(Cl)c5)c4)n3)cn2)CC1
3. Cl.Cl.NCC(C(=O)Nc1cc(Br)c(-c2ccnc3[nH]ccc23)s1)c1ccccc1 (centres unmarked)
4. Nc1ncc(-c2cccnc2)c2scc(-c3ccc4c(c3)CCN4C(=O)Cc3ccccc3)c12

[0, 0, 55, 0]

I'm hoping you can list %Inh for every compound here, please.
1. CCn1c(-c2nonc2N)nc2c(C#CC(C)(C)O)nc(OC[C@H](N)c3ccccc3)cc21
2. O=C(Nc1cccc(-c2nn3ccccc3c2-c2ccnc(Nc3cccc(F)c3)n2)c1)c1c(F)ccc(F)c1Cl
3. COC(=O)Nc1nc2cc(Oc3ccc(NC(=O)Nc4cc(C(F)(F)F)ccc4F)cn3)ccc2[nH]1.Cl.Cl

0
3
0

I'm hoping you can list %Inh for every compound here, please.
1. CC(=O)Nc1nc2cnc(Nc3cc(NC(=O)c4cccc(C5(C#N)CC5)c4Cl)ccc3C)nc2s1
2. c1ccc(-c2cnc3nccnn23)cc1

[19, 0]

# credit: paper PMC5540273
